# System: HaCat cell line
# ASSAY COMMENT: In vitro HaCat cytotoxicity (MTT)
# Format: cell-based, human
# MEASUREMENT CONTEXT: 21 h exposure, OD570, relative to untreated control
Where a SMILES comes first, the peptide text is derived from it.
MEASURED PROPERTY: % HaCat cell death at initial screening (256μg/mL) ± SD (%)

- COMPOUND: "CC[C@H](C)[C@H](NC(=O)[C@H](C)NC(=O)[C@H](CCCCN)NC(=O)[C@@H]1CCCN1C(=O)[C@@H](NC(=O)[C@H](CC(C)C)NC(=O)[C@H](CCCCN)NC(=O)[C@H](Cc1ccccc1)NC(=O)[C@H](CC(C)C)NC(=O)[C@@H](N)Cc1ccccc1)[C@@H](C)CC)C(=O)N[C@@H](CCCCN)C(=O)N[C@@H](CCCCN)C(=O)N[C@@H](CC(C)C)C(=O)N[C@H](C(=O)N[C@@H](CO)C(=O)N[C@@H](CCCCN)C(=O)N[C@@H](Cc1ccccc1)C(=O)N[C@@H](CCCCN)C(=O)O)[C@@H](C)CC [AamAP1-Lys] (H-FLFKLIPKAIKKLISKFK-OH)"
  UNITS: "%"
  VALUE: 99.1
- COMPOUND: "CC[C@H](C)[C@H](NC(=O)[C@H](C)NC(=O)[C@H](CCCCN)NC(=O)[C@H](CCCNC(=N)N)NC(=O)[C@@H](NC(=O)[C@H](CC(C)C)NC(=O)[C@H](CO)NC(=O)[C@H](Cc1ccccc1)NC(=O)[C@H](CC(C)C)NC(=O)[C@@H](N)Cc1ccccc1)[C@@H](C)CC)C(=O)NCC(=O)NCC(=O)N[C@@H](CC(C)C)C(=O)N[C@H](C(=O)N[C@@H](CO)C(=O)N[C@@H](C)C(=O)N[C@@H](Cc1ccccc1)C(=O)N[C@@H](CCCCN)C(=O)O)[C@@H](C)CC"
  UNITS: "%"
  VALUE: 100
- COMPOUND: "CC[C@H](C)[C@H](NC(=O)[C@H](CCCCN)NC(=O)[C@H](CCC(=O)O)NC(=O)[C@H](Cc1c[nH]c2ccccc12)NC(=O)[C@H](Cc1ccccc1)NC(=O)[C@H](CCCCN)NC(=O)CNC(=O)[C@H](CC(C)C)NC(=O)[C@H](C)N)C(=O)N[C@@H](CCCCN)C(=O)N[C@@H](CO)C(=O)N[C@@H](CC(C)C)C(=O)N[C@@H](Cc1ccccc1)C(N)=O [A1F5K8-IsCTa] (H-ALGKFWEKIKSLF-NH2)"
  UNITS: "%"
  VALUE: 83.6
- COMPOUND: "CC[C@H](C)[C@H](N)C(=O)N[C@@H](CC(C)C)C(=O)NCC(=O)N[C@@H](CCCCN)C(=O)N[C@H](C(=O)N[C@@H](Cc1c[nH]c2ccccc12)C(=O)N[C@@H](CCCCN)C(=O)N1CCC[C@H]1C(=O)N[C@H](C(=O)N[C@@H](CCCCN)C(=O)N[C@@H](CCCCN)C(=O)N[C@@H](CC(C)C)C(=O)N[C@@H](Cc1ccccc1)C(N)=O)[C@@H](C)CC)[C@@H](C)CC [K7P8K11-IsCTa] (H-ILGKIWKPIKKLF-NH2)"
  UNITS: "%"
  VALUE: 89.2
- COMPOUND: "C[C@H](NC(=O)CNC(=O)[C@H](CCCCN)NC(=O)[C@@H](N)CS)C(=O)N[C@@H](Cc1ccccc1)C(=O)N[C@@H](CCCCN)C(=O)N[C@@H](CCC(N)=O)C(=O)N[C@H](C(=O)N[C@@H](CS)C(=O)N[C@@H](CCCCN)C(=O)N[C@@H](CS)C(=O)N[C@@H](Cc1ccc(O)cc1)C(N)=O)[C@@H](C)O [Os(11-22)a] (H-CKGAFKQTCKCY-NH2; N-terminus assumed)"
  UNITS: "%"
  VALUE: 59.5

* * *

# Test system: C. albicans NCPF 3281
# ASSAY COMMENT: microbe, parasite or virus in culture
# Type: cell-based
# MEASUREMENT CONTEXT: NCPF 3281, 20 h
Where a SMILES comes first, the peptide text is derived from it.

- COMPOUND: "CC[C@H](C)[C@H](NC(=O)[C@H](CCCCN)NC(=O)CNC(=O)[C@@H](N)CC(C)C)C(=O)N[C@@H](C)C(=O)N[C@@H](CCCCN)C(=O)N[C@H](C(=O)NCC(=O)N[C@@H](CC(C)C)C(=O)N[C@@H](CCCCN)C(N)=O)C(C)C [XPF10a] (H-LGKIAKVGLK-NH2)"
  Modal MIC90: "> 120.6 µM"
- COMPOUND: "CC(C)[C@H](NC(=O)CNC(=O)[C@H](CCCNC(=N)N)NC(=O)[C@H](CCCNC(=N)N)NC(=O)[C@H](CS)NC(=O)[C@@H](NC(=O)[C@H](CS)NC(=O)[C@@H](N)CCCNC(=N)N)C(C)C)C(=O)N[C@@H](CS)C(=O)O [ThetaDefB] (H-RCVCRRGVC-OH; N-terminus and C-terminus assumed)"
  Modal MIC90: "> 116.4 µM"
- COMPOUND: "CC(C)[C@H](NC(=O)[C@H](CS)NC(=O)[C@@H](N)CCCNC(=N)N)C(=O)N[C@@H](CS)C(=O)N[C@H](C(=O)N[C@@H](CCCNC(=N)N)C(=O)NCC(=O)N[C@@H](Cc1ccccc1)C(=O)N[C@@H](CS)C(=O)O)[C@@H](C)O [ThetaDefA] (H-RCVCTRGFC-OH; N-terminus and C-terminus assumed)"
  Modal MIC90: "> 122.6 µM"
- COMPOUND: "CC[C@H](C)[C@H](NC(=O)[C@H](CCCCN)NC(=O)[C@H](CC(C)C)NC(=O)[C@H](C)NC(=O)[C@H](C)NC(=O)[C@H](CCCCN)NC(=O)[C@H](CC(C)C)NC(=O)[C@H](C)NC(=O)[C@H](CCCCN)NC(=O)CN)C(=O)NCC(=O)N[C@@H](C)C(=O)N[C@@H](CC(N)=O)C(=O)N[C@H](C(=O)N[C@@H](CC(C)C)C(=O)NCC(=O)NCC(=O)N[C@@H](C)C(=O)N1CCC[C@H]1C(=O)N[C@@H](CCC(N)=O)C(N)=O)C(C)C [CPF-P3-20a] (H-GKALKAALKIGANVLGGAPQ-NH2)"
  Modal MIC90: "> 65.7 µM"
- COMPOUND: "CC(C)[C@H](NC(=O)CNC(=O)[C@H](CCCNC(=N)N)NC(=O)[C@H](CCCNC(=N)N)NC(=O)[C@H](CS)NC(=O)[C@@H](NC(=O)[C@H](CS)NC(=O)[C@@H](N)CCCNC(=N)N)C(C)C)C(=O)N[C@@H](CS)C(=O)N[C@@H](CCCNC(=N)N)C(=O)N[C@@H](CS)C(=O)N[C@H](C(=O)N[C@@H](CS)C(=O)N[C@@H](CCCNC(=N)N)C(=O)N[C@@H](CCCNC(=N)N)C(N)=O)C(C)C [BTD15a] (H-RCVCRRGVCRCVCRR-NH2; N-terminus assumed)"
  Modal MIC90: "35 µM"
- COMPOUND: "CC(C)C[C@H](NC(=O)CNC(=O)[C@H](Cc1ccccc1)NC(=O)[C@H](CCCCN)NC(=O)[C@H](Cc1ccccc1)NC(=O)[C@H](C)NC(=O)[C@@H](N)CCCCN)C(=O)N[C@@H](CCCCN)C(=O)N[C@H](C(=O)N[C@H](C(=O)NCC(=O)N[C@@H](CCCCN)C(N)=O)C(C)C)[C@@H](C)O [CPF-MW-12a] (H-KAFKFGLKTVGK-NH2)"
  Modal MIC90: "> 95.5 µM"

* * *

// Modal MIC90 lookup, one value per entry
# System: C. auris TDG 1912
# ASSAY COMMENT: microbe, parasite or virus in culture
# Type: cell-based, Candida auris
# MEASUREMENT CONTEXT: C. auris TDG 1912; shown in µM
Where a SMILES comes first, the peptide text is derived from it.
MEASURED PROPERTY: Modal MIC90

- COMPOUND: "C[C@H](NC(=O)CNC(=O)[C@H](CCCCN)NC(=O)[C@@H](N)CS)C(=O)N[C@@H](Cc1ccccc1)C(=O)N[C@@H](CCCCN)C(=O)N[C@@H](CCC(N)=O)C(=O)N[C@H](C(=O)N[C@@H](CS)C(=O)N[C@@H](CCCCN)C(=O)N[C@@H](CS)C(=O)N[C@@H](Cc1ccc(O)cc1)C(N)=O)[C@@H](C)O [Os(11-22)a] (H-CKGAFKQTCKCY-NH2; N-terminus assumed)"
  TARGET: "C. auris TDG 1912"
  MEASURED PROPERTY: "Modal MIC90"
  VALUE: "> 91.7 µM"
- COMPOUND: "CC(C)C[C@H](NC(=O)[C@H](CCCCN)NC(=O)[C@H](CO)NC(=O)[C@H](CCCCN)NC(=O)[C@H](Cc1c[nH]c2ccccc12)NC(=O)[C@H](C)NC(=O)[C@H](CCCCN)NC(=O)[C@H](CCCCN)NC(=O)[C@H](CC(C)C)NC(=O)[C@H](Cc1ccccc1)NC(=O)[C@H](CO)NC(=O)CN)C(=O)N[C@@H](C)C(=O)N[C@@H](CCCCN)C(=O)N[C@@H](CCCCN)C(=O)N[C@@H](CC(C)C)C(=O)N[C@@H](CCCNC(=N)N)C(=O)N[C@@H](C)C(=O)N[C@@H](CCCCN)C(=O)NCC(N)=O [PS-PB-20a] (H-GSFLKKAWKSKLAKKLRAKG-NH2)"
  TARGET: "C. auris TDG 1912"
  MEASURED PROPERTY: "Modal MIC90"
  VALUE: "> 55.7 µM"
- COMPOUND: "CC[C@H](C)[C@H](NC(=O)[C@H](C)NC(=O)[C@H](CCCCN)NC(=O)[C@@H]1CCCN1C(=O)[C@@H](NC(=O)[C@H](CC(C)C)NC(=O)[C@H](CO)NC(=O)[C@H](Cc1ccccc1)NC(=O)[C@H](CC(C)C)NC(=O)[C@@H](N)Cc1ccccc1)[C@@H](C)CC)C(=O)NCC(=O)NCC(=O)N[C@@H](CC(C)C)C(=O)N[C@H](C(=O)N[C@@H](CO)C(=O)N[C@@H](C)C(=O)N[C@@H](Cc1ccccc1)C(=O)N[C@@H](CCCCN)C(N)=O)[C@@H](C)CC"
  TARGET: "C. auris TDG 1912"
  MEASURED PROPERTY: "Modal MIC90"
  VALUE: "> 64.8 µM"
